Data origin: patent US7084178B2

// IC50 lookup, one value per entry
# Tested on: Aβ formation in H4 cells stably transfected to overexpress the HPLAP-APP fusion protein
# protocol_notes: Inhibition of β-amyloid peptide formation in human H4 cells
# Type: cell-based
# cond: Homo sapiens; H4 cells overexpressing HPLAP-APP, 18 hrs at 37° C.

Previously resolved entries follow.
compound: CC(C)(C)c1ccc(CN([C@@H]2CCCC[C@@H]2C(N)=O)S(=O)(=O)c2ccc(Cl)cc2)cc1 [Example 3]
IC50: 50 to 500 nM

compound: CCNC(=O)c1ccc(CN([C@@H]2CCCC[C@@H]2C(N)=O)S(=O)(=O)c2ccc(Cl)cc2)cc1 [Example 2]
IC50: ≤ 50 nM

compound: COC(=O)c1ccc(CN([C@@H]2CCCC[C@@H]2C(N)=O)S(=O)(=O)c2ccc(Cl)cc2)cc1 (relative stereo) [Example 13]
IC50: ≤ 50 nM

Query block: For N#Cc1ccc(CN([C@H]2CCCCC[C@H]2C(N)=O)S(=O)(=O)c2ccc(Cl)cc2)cc1 (relative stereo) [Example 21] , what is its reported IC50?
Result block: 500 to 50000 nM

Query block: Query: IC50; subject: NC(=O)[C@H]1CCCC[C@H]1N(Cc1ccc(F)c(Cl)c1)S(=O)(=O)c1ccc(Cl)cc1 [Example 5]
Result block: 50 to 500 nM

Query block: Endpoint output: IC50 of NC(=O)[C@H]1CCCC[C@H]1N(Cc1ccc(SC(F)(F)F)cc1)S(=O)(=O)c1ccc(Cl)cc1 [Example 8] . Value?
Result block: ≤ 50 nM

Query block: What does the data say about its IC50? Entry: COC(=O)c1ccc(CN([C@@H]2CCCC[C@@H]2C(N)=O)S(=O)(=O)c2ccc(Cl)cc2)cc1 [Example 1]
Result block: ≤ 50 nM
